Assign Clinical Chemistry - Serum Glutamic Pyruvic Transaminase score to each entry below.
Assay: Renal Toxicity Screening Protocol, toxicity compared to NSC-119875
Format: in vivo
Details: relative to NSC-119875
Answers are plain numbers.

Reference set (2 entries):
# molecule, endpoint_value
records = [
    ("N.N.O=C([O-])C1(C(=O)[O-])CCC1.[Pt+2] [NSC-241240]", 3),
    ("N[C@@H]1CCCC[C@H]1N.O=C([O-])c1ccc(C(=O)[O-])c(C(=O)[O-])c1.[H+].[Pt+2] [NSC-271674]", 3),
]

Respectfully, I request Clinical Chemistry - Serum Glutamic Pyruvic Transaminase score for each entry included below.
1. NC1CCCCC1N.O=S(=O)([O-])[O-].[Pt+2] (stereo not shown) [NSC-250427]
2. CC(C)N.CC(C)N.[Cl-].[Cl-].[OH-].[OH-].[Pt] [NSC-256927]

*A*
[5, 3]
